These measurements were taken from patent US8404672B2.

- system: S1P1 (membranes from S1P1 transfected CHO cells) (Homo sapiens)
- Sequence (P21453 whole entry): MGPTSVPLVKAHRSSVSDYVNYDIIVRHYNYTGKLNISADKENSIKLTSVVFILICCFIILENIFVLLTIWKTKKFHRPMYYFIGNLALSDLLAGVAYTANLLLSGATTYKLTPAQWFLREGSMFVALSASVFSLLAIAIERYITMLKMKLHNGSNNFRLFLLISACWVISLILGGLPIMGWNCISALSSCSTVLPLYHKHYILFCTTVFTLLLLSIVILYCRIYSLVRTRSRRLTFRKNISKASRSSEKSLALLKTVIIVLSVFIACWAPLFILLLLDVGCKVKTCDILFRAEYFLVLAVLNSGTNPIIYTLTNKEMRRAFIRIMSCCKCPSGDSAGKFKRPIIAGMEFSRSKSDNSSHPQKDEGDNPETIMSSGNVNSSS
- test-description: Method B: Receptor [35S] GTPγS SPA Binding Assay, S1P1
- measurement-setup: Method B SPA; S1P1 transfected CHO membranes
pEC50: −log10 of the molar value.
metric: pEC50

> print(dat)
                                   molecule                                    system  result.value
1  CCc1c(-c2nc(-c3ccc(CN4CC(C(=O)O)C4)cc3)no2)noc1-c1ccccn1  S1P1 (membranes from S1P1 transfected CHO cells) (Homo sapiens)          9.21

P = CCCc1c(-c2nc(-c3ccc(CN4CC(C(=O)O)C4)cc3)no2)noc1-c1ccccn1
Q = O=C(O)C1CN(Cc2ccc(-c3noc(-c4noc(-c5ccccn5)c4C(F)(F)F)n3)cc2)C1
# input // pick larger pEC50 from pair: P vs Q Respond with the label that goes with your answer.
# output Q
(Q: 9.47, P: 9.19)

---

- system: S1P3 (membranes from EDG3-Gal5-bla HEK293T cells) (Homo sapiens)
- test-description: Method A: Receptor [35S] GTPγS Binding Assay, S1P3
pEC50: −log10 of the molar value.
metric: pEC50

Below, 3 molecules whose answers are already recorded.
> print(dat)
                                   molecule  metric  result.value
1  CC(C)c1c(-c2nc(-c3ccc(CN4CC(C(=O)O)C4)cc3)no2)noc1-c1ccccn1   pEC50          5.15
2  O=C(O)C1CN(Cc2ccc(-c3noc(-c4cc(-c5ccccn5)no4)n3)cc2)C1   pEC50          5.64
3  CCc1c(-c2nc(-c3ccc(CN4CC(C(=O)O)C4)cc3)no2)noc1-c1ccccn1   pEC50          5.72

P = CCCc1c(-c2nc(-c3ccc(CN4CC(C(=O)O)C4)cc3)no2)noc1-c1ccccn1
Q = COC(=O)c1c(-c2ccccn2)noc1-c1nc(-c2ccc(CN3CC(C(=O)O)C3)cc2)no1
# input Identify the entry with the smaller pEC50: P or Q . To answer, give the label that identifies your chosen option.
# output Q
(Q: 4.72, P: 5.68)

---

- system: S1P1 (membranes from S1P1/CHO cells) (Homo sapiens, UniProt P21453)
- Construct: expressed in transfected cells; host or cells: S1P1/CHO cells
- Sequence (P21453 whole entry): as above
- test-description: Method A: Receptor [35S] GTPγS Binding Assay, S1P1
- Type: biochemical
- measurement-setup: ratio of GTPγS S1P3 EC50 to GTPγS S1P1 EC50, Method A
metric: GTPγS S1P3/S1P1 (Method A)

> print(dat)
                                   compound  result.value
1  O=C(O)C1CN(Cc2ccc(-c3noc(-c4cc(-c5ccccc5)c(C(F)(F)F)s4)n3)cc2)C1 [Comp. A, reference compound]           1.2
2  CCc1c(-c2nc(-c3ccc(CN4CC(C(=O)O)C4)cc3)no2)noc1-c1ccccn1 [Example 5]           513

P = O=C(O)C1CN(Cc2ccc(-c3noc(-c4cc(-c5ccccn5)no4)n3)cc2)C1 [Example 8]
Q = CC(C)c1c(-c2nc(-c3ccc(CN4CC(C(=O)O)C4)cc3)no2)noc1-c1ccccn1 [Example 4]
# input Return label of the item with the larger GTPγS S1P3/S1P1 (Method A). Candidates: P , Q . // return label of chosen record
# output Q
